Reference for the values: ChEMBL document CHEMBL5614424

assay: Half life in male rat at 5 mg/kg, iv measured upto 24 hrs by LC/MS/MS analysis; type: ADME, organism-based; settings: in vivo
readout: half-life (h)
Kindly provide the numeric value in h only, without the unit symbol.

Entry O=C1C(=O)c2c(oc3c2CCN(CCO)C3)-c2ccccc21 : reported half-life = ?
2.4

Entry CC(C)C[C@@H](CO)N1CCc2c(oc3c2C(=O)C(=O)c2ccccc2-3)C1 : reported half-life = ?
7.9

Entry CC(C)C[C@@H](CO)N1CCc2c(oc3c2C(=O)C(=O)c2ccccc2-3)C1.Cl : reported half-life = ?
17.2

---

Each entry below lists one item and its recorded AUC(0-inf) value.
assay: AUC(0 to infinity) in male rat at 10 mg/kg, ip measured upto 24 hrs by LC/MS/MS analysis; assay type: ADME, organism-based; details: in vivo

Entry CC(C)C[C@@H](CO)N1CCc2c(oc3c2C(=O)C(=O)c2ccccc2-3)C1 : reported AUC(0-inf) = ?
490 ng·h/mL

Entry O=C1C(=O)c2c(oc3c2CCN(CCO)C3)-c2ccccc21 : reported AUC(0-inf) = ?
241 ng·h/mL

Continuing:
Entry CC(C)C[C@@H](CO)N1CCc2c(oc3c2C(=O)C(=O)c2ccccc2-3)C1.Cl : reported AUC(0-inf) = ?
523 ng·h/mL
